# Measured Target: T1, soluble human CD3 epsilon chain (human, UniProt P07766 23-126)
# T1 construct: also called CD3ε
# T1 sequence (P07766 23-126 limits assumed): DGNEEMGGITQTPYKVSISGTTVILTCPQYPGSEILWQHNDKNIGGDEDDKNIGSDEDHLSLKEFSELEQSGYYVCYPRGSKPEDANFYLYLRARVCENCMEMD
# Protocol Summary: SPR
pKd: −log10 of the molar value.
This listing pairs binders with measured pKd.

Binder: TR01H067-E22Hh/none-Hi-Kn010G3/L0262-k0 (antibody, V domains shown, one-arm) VH: QVQLVESGGGLVQPGRSLRLSCAASGFTFSNAWMHWVRQAPGKGLEWVAQIKDKSQNYATYYAESVKGRFTISRDDSKNSLYLQMNSLKTEDTAVYYCRYVHYAASYGVDAWGQGTTVTVSS VL: DIVMTQSPLSLPVTPGEPASISCRSSQPPVHSNRNTYLHWYQQKPGQAPRLLIYKVSNRFSGVPDRFSGSGSGTDFTLKISRVEAEDVGVYYCAQGTQVPYTFGQGTKLEIK
pKd: 7.31
--
Binder: TR01H082-E22Hh/none-Hi-Kn010G3/L0271-k0 (antibody, V domains shown, one-arm) VH: QVQLVESGGGLVQPGRSLRLSCAASGFTFSNAWMHWVRQAPGKGLEWVAQIKDKSQNYATYYAESVKGRFTISRDDSKNSLYLQMNSLKTEDTAVYYCRYVHYAAGYGVDAWGQGTTVTVSS VL: DIVMTQSPLSLPVTPGEPASISCRSSQPPVHSNRQTYLHWYQQKPGQAPRLLIYKVSNRFSGVPDRFSGSGSGTDFTLKISRVEAEDVGVYYCGQGTQVPYTFGQGTKLEIK
pKd: 7.17
--
Binder: TR01H099-E22Hh/none-Hi-Kn010G3/L0011-k0 (antibody, V domains shown, one-arm) VH: QVQLVESGGGLVQPGRSLRLSCAASGFTFSNAWMHWVRQAPGKGLEWVAQIKDKSQNYAQYYAESVKGRFTISRDDSKNSLYLQMNSLKTEDTAVYYCRYVHYAAGYGVDAWGQGTTVTVSS VL: DIVMTQSPLSLPVTPGEPASISCRSSQPLVHSNRNTYLHWYQQKPGQAPRLLIYKVSNRFSGVPDRFSGSGSGTDFTLKISRVEAEDVGVYYCGQGTQVPYTFGQGTKLEIKR
pKd: 7.11
